- SYSTEM_NAME: OsWOX13 (Oryza sativa, UniProt Q5QMM3 1-267)
- Sequence: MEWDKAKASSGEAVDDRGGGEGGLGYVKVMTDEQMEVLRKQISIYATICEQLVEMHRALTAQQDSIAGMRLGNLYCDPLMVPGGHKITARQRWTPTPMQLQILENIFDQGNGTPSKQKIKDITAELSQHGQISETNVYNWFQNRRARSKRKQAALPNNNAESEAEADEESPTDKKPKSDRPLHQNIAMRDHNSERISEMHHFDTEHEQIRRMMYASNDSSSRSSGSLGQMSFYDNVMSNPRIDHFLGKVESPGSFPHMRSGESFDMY
- PROTOCOL_DESCRIPTION: protein-binding microarray (RPBM); PBS, 2% BSA, 51.3 ng/ul salmon testes DNA, 50 uM zinc acetate, 200 nM TF, 25 C, 1 h; high values mean tight binding
- PROTOCOL_CONDITIONS: protein: recombinant; tags: N-terminal polyhistidine and DsRed monomer fusion (pET32a); label: CyDye5-dUTP incorporated in the synthesized complementary strand; 3' TTTTT single-stranded linker to array surface; dsDNA, one strand shown
Over roughly 35,000 sequences, “fluorescence intensity (a.u.)” has its median near 10,000; the highest 2% begin near 52,000. The list comes from a sample in which the highest values are over-represented; it also holds close analogues and randomly drawn sequences.
Would you kindly list binding signal for each of these sequences?

Q: Let me know recorded binding signal for `TATAATAATTAAAACTCAATCAATCATACGTTAATAGCACCGGAGTCACCTAGTGCAG` , thanks.
Ans: 20000 fluorescence intensity (a.u.)

Q: Let me know recorded binding signal for `TCCATTAACATTTGCCATTATCGTACTGACTTTCGTACGACGGAGTCACCTAGTGCAG` , thanks.
Ans: 3710 fluorescence intensity (a.u.)

Q: Let me know recorded binding signal for `CTAGTAATAACACTGACATCAATTAGCAATTTAGCATCCGCGGAGTCACCTAGTGCAG` , thanks.
Ans: 13200 fluorescence intensity (a.u.)

Q: Let me know recorded binding signal for `CCACTAACAGTCTAACAACATGATAAGGCCTCCGCAACCACGGAGTCACCTAGTGCAG` , thanks.
Ans: 3920 fluorescence intensity (a.u.)

Q: Let me know recorded binding signal for `AATTTACACTTAATTTGCTATTTGCTATACATGTTTTCTACGGAGTCACCTAGTGCAG` , thanks.
Ans: 10800 fluorescence intensity (a.u.)

Q: Let me know recorded binding signal for `CGTAAACATCTGATGAGTACCTCACATGTTGAACATCTCCCGGAGTCACCTAGTGCAG` , thanks.
Ans: 3900 fluorescence intensity (a.u.)

Q: Let me know recorded binding signal for `GTGATAATTGCAAAATTAGGAATTATGCAAGGGGTGTAGACGGAGTCACCTAGTGCAG` , thanks.
Ans: 49400 fluorescence intensity (a.u.)

Q: Let me know recorded binding signal for `TTGTAAATTACCTGCAAGGAAGAATTAACCAAGATGTCTTCGGAGTCACCTAGTGCAG` , thanks.
Ans: 5040 fluorescence intensity (a.u.)

Q: Let me know recorded binding signal for `CTCAAAATTTAAATTTAAGGTTAAAAGTTAAAATTTTACGCGGAGTCACCTAGTGCAG` , thanks.
Ans: 21200 fluorescence intensity (a.u.)
